Cited source for all entries: the supplement of paper PMC10126150

switch fluorescence ratio for assorted sequences
Tested on: ATP;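 further: ATP exposure 15 min at 22 °C before imaging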
Assay: switch fluorescence ratio, 500 uM ATP over buffer (Cy3 cluster intensity, sum of 5 cycles each) (fold (ratio)); higher = stronger signal-on switching upon ATP binding; sequences stand for … in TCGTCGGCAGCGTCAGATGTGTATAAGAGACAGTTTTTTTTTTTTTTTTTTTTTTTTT…TC
Conditions: aptamer strand: ATP DNA aptamer (quencher-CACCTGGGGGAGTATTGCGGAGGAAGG + anchor), 100 nM annealed; ATP concentration: 500 uM
reported.property: switch fluorescence ratio

{"sequence.code": "GGAGTTTTGA", "target.or.test.system": "ATP", "observed": 0.982}
{"sequence.code": "GCTCGTTAAA", "target.or.test.system": "ATP", "observed": 1.04}
{"sequence.code": "AGGGAAGGGC", "target.or.test.system": "ATP", "observed": 1.03}

* * *

System: ATP;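 further: ATP exposure 15 min at 22 °C before imaging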
Assay: switch fluorescence ratio, 500 uM ATP over buffer (Cy3 cluster intensity, sum of 5 cycles each) (fold (ratio)); higher = stronger signal-on switching upon ATP binding; sequences stand for … in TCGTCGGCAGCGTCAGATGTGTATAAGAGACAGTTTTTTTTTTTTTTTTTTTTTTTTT…TC
Settings: aptamer strand: ATP DNA aptamer (quencher-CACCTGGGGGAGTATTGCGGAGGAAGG + anchor), 100 nM annealed; ATP concentration: 500 uM
switch fluorescence ratio overview

{"sequence.code": "GGTTGGACAG", "switch fluorescence ratio": 0.988}
{"sequence.code": "GAGGGCAATC", "switch fluorescence ratio": 2.76}
{"sequence.code": "TTTGCAACGA", "switch fluorescence ratio": 1.25}
{"sequence.code": "TGATGTTATA", "switch fluorescence ratio": 0.968}
{"sequence.code": "AACCTGGGGC", "switch fluorescence ratio": 1.15}
{"sequence.code": "ACAGTCGTCT", "switch fluorescence ratio": 0.949}
{"sequence.code": "GCGGTCGGGC", "switch fluorescence ratio": 0.995}
{"sequence.code": "ACCCTGGAAC", "switch fluorescence ratio": 1.04}
{"sequence.code": "TTAGTTATAC", "switch fluorescence ratio": 1.78}
{"sequence.code": "CAGGTAGTCT", "switch fluorescence ratio": 0.997}
{"sequence.code": "TTTGTCAGGC", "switch fluorescence ratio": 1.02}
{"sequence.code": "TGAGTATTAG", "switch fluorescence ratio": 0.999}
{"sequence.code": "TACAGGCGTA", "switch fluorescence ratio": 0.996}
{"sequence.code": "GACCAGGTTA", "switch fluorescence ratio": 1.18}
{"sequence.code": "CTTCAGTTAC", "switch fluorescence ratio": 1.82}
{"sequence.code": "GGGGATGATG", "switch fluorescence ratio": 0.968}
{"sequence.code": "ATTGGACTG", "switch fluorescence ratio": 1.01}

* * *

In this section, each of the sequences is paired with its reported switch fluorescence ratio.
System: ATP;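 further: ATP exposure 15 min at 22 °C before imaging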
Assay: switch fluorescence ratio, 500 uM ATP over buffer (Cy3 cluster intensity, sum of 5 cycles each) (fold (ratio)); higher = stronger signal-on switching upon ATP binding; sequences stand for … in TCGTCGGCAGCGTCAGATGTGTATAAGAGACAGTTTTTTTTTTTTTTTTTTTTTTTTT…TC
Details: aptamer strand: ATP DNA aptamer (quencher-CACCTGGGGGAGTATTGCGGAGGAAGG + anchor), 100 nM annealed; ATP concentration: 500 uM

{"sequence.code": "TAAAAATCCC", "switch fluorescence ratio": 1.16}
{"sequence.code": "TGGGGCCTTT", "switch fluorescence ratio": 0.998}
{"sequence.code": "AACAACAGGA", "switch fluorescence ratio": 1.03}
{"sequence.code": "CGTAGGGGGC", "switch fluorescence ratio": 1.03}
{"sequence.code": "CGGTAAGGCA", "switch fluorescence ratio": 0.99}
{"sequence.code": "TTAGTTTTAC", "switch fluorescence ratio": 1}
{"sequence.code": "CTACGAGCTG", "switch fluorescence ratio": 1.06}
{"sequence.code": "GAATCACAGC", "switch fluorescence ratio": 1.02}
{"sequence.code": "GCTGCTGTTT", "switch fluorescence ratio": 1.01}
{"sequence.code": "ATCGTGAGGG", "switch fluorescence ratio": 1}
{"sequence.code": "GAAGGGGTGA", "switch fluorescence ratio": 1.03}
{"sequence.code": "AAATGCTTAG", "switch fluorescence ratio": 0.995}
{"sequence.code": "ATGCTGGTTA", "switch fluorescence ratio": 0.996}
{"sequence.code": "AGGGTATGAT", "switch fluorescence ratio": 0.99}
{"sequence.code": "TGACGGTTTA", "switch fluorescence ratio": 1.02}
{"sequence.code": "GGGTCTTTTT", "switch fluorescence ratio": 1.02}
{"sequence.code": "GGTAGGGCGA", "switch fluorescence ratio": 1.01}
{"sequence.code": "ATAATAGAAT", "switch fluorescence ratio": 0.993}
{"sequence.code": "GCTCCGTGGG", "switch fluorescence ratio": 1.93}
{"sequence.code": "TTAAGGGTGG", "switch fluorescence ratio": 0.991}
{"sequence.code": "GAATTCAGGG", "switch fluorescence ratio": 0.99}
{"sequence.code": "CTGTTGGGTC", "switch fluorescence ratio": 0.979}
{"sequence.code": "TATAAAATTC", "switch fluorescence ratio": 1.24}
{"sequence.code": "GTTTTGAGGT", "switch fluorescence ratio": 1.02}
{"sequence.code": "TTTAAAACTT", "switch fluorescence ratio": 2.03}
{"sequence.code": "TATCTTTTTC", "switch fluorescence ratio": 1.04}
{"sequence.code": "TTGCTCCTGT", "switch fluorescence ratio": 0.996}
